Assay protocol: chemical genetic growth profiling, strain panel (AID 1159580);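 also: tested at 20 µM; growth read once vehicle control cultures reached saturation at 30 °C; 1 = growth at the plate median or of vehicle wells; lower values mean less growth of the strain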
Condition label: S. cerevisiae deletion strains, growth OD, locus YJR075W, strain HOC1, active compounds read low
Among all 5,500 compounds or so, about 2,000 (36%) were called active. Inconclusive results (about 18%) are left out. The list shows a part of the results.
Each entry below carries its recorded normalized growth.
Just the number, please.

- Compound: "CCOc1ccc(/C=C(\\C#N)c2cccc(Cl)c2)cc1"
  Recorded value: 0.967

response.value for "COc1cc2c(cc1OC)[C@@H]1C(=O)c3ccc4c(c3O[C@@H]1CO2)C=CC(C)(C)O4" (field: normalized growth) = 0.973

response.value for CC(=O)OCC(=O)[C@@]1(O)CCC2C3CCC4=CC(=O)CC[C@]4(C)C3C(=O)C[C@@]21C (stereo partly specified) (field: normalized growth) = 1.01

response.value for "Cc1ccc(-c2csc(-c3ccc(Cl)cc3)n2)c(C)c1" (field: normalized growth) = 1.01
